Value source: patent US5849691A

# systemTested: cathepsin D (Homo sapiens, UniProt P07339)
# Sequence (P07339 65-412): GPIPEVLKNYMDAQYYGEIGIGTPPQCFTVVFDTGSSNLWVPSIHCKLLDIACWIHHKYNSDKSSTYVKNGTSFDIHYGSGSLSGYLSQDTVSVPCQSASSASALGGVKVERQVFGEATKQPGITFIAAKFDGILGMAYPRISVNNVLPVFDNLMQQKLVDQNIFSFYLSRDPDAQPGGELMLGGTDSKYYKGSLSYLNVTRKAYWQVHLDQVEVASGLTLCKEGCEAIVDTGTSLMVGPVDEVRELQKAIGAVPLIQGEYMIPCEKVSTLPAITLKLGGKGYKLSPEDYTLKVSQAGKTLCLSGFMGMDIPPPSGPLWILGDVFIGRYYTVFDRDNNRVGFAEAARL
# methodSummary: cathepsin D inhibition assay with fluorogenic substrate (tight-binding kinetics)
# Assay type: biochemical
# testSettings: target named only in b168/b175 (cathepsin D), elsewhere implied; read-out: Ki
pKi: −log10 of the molar value.
measurementName: pKi

[[record]]
compound = "CC(C)C[C@H](NC(=O)[C@H](C)NC(=O)C[C@H](O)[C@H](Cc1ccccc1)NC(=O)[C@@H](NC(=O)c1ccccn1)C(C)C)C(N)=O [drawing 15]"
systemtested = "cathepsin D (Homo sapiens, UniProt P07339)"
measurementname = "pKi"
val = 7.68


* * *

# systemTested: plasmepsin I (PMI) (Plasmodium falciparum)
# Sequence (P39898 124-452): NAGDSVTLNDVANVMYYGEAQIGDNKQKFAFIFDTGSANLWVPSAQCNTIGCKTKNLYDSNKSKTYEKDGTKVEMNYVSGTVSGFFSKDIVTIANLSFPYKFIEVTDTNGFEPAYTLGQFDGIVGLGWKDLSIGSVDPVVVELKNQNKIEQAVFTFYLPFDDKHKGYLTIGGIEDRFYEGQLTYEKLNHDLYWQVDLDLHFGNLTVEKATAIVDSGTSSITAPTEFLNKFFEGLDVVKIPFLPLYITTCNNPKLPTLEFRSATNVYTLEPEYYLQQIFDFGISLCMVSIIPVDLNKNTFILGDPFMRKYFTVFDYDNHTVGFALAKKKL
measurementName: Ki (nM)

[[record]]
compound = "CC(C)C[C@H](NC(=O)[C@@H](NC(=O)C[C@H](O)[C@@H]1CCCCNC(=O)CC[C@H](NC(=O)CC(C)(C)C)C(=O)N[C@@H](C(C)C)C(=O)N1)C(C)C)C(=O)NCC(N)=O [drawing 40]"
unitspec = "nM"
val = 22

[[record]]
compound = "CC(C)C[C@H](NC(=O)[C@H](C)NC(=O)C[C@H](O)[C@H](Cc1ccccc1)NC(=O)[C@@H](NC(=O)c1ccccn1)C(C)C)C(N)=O [drawing 42]"
unitspec = "nM"
val = 16

